Measured values drawn from a protein production outcome set (Wang et al. 2014) for this set.

Experiment: label from the status in PepcDB records
MEASURED_QUANTITY: protein production

MDMTYNMRNAMASSRNMEEPQYDMSTIDLTQNSMNTNYLMNGSVLTNAYNNDYIVNNRDKYTGDMISQLKIDQGIPTYSHTLPMNGTTLADTNDSLNIQGMMRTNMDTTGFDGYSHIMNYNNTQNTIQTNPITYRMEDYNNLNNDVMYINPTTGEKFSAEYVNNIPTNDSDNMLYSNNFKNNSINMNTLLNSHYNNLPYPMPIYESMNNPQMYMQHMNQKQTVNIPLQHGEKKSAARNISTVNKRRIKTKKFFPCC ... failed
STAFFFRRMSPADKRKLLDELRSIYRTIVLEYFNTDAKVNERIDEFVSKAFFADISVSQVLEIHVELMDTFSKQLKLEGRSEDILLDYRLTLIDVIAHLCEMYRRSIPREV ... not failed
MTLFDGTPFEWAPGRIEVRARRECGASRKSLVVAAGVSYLARMIFSFDAFVTNALFDRSGRAMFALGDGTVRLQTDEGFVTVEAHGGPLGGAVLAAAVHPSGAGIVTGGDDGRVVWSRIEGGEVVATLIAEVKNKWIEHVAASAASGLIAFTVGKEVHVRDAADPAFARTFPHEKTVSGLAFEPKGRRLASATYGGAYLWYARIADQKPTVLKWAGSHIAVEFSPDGKFLISSMQENQLHGWRLSDGKDMRMGGYPSKIKSVAFFDKGNLLATAGASGAVIWPFAGANGPMGKEAAEIGFSRDSMVVRVAGIDPQPVCIAGQDSGKIWAAHMRNGRIETLKAEKGAPISALSVSADGKRLAWGDESGEAGVLEIPDLSGPRQFVGLEHHHHHH ... failed
MDKLDAMQVYVAVVDAHSFARAAEVLGQPRSTVSRVVKELEAWLGAQLLQRTTRKLSVTAEGRRYYEECKRLLAEMAAMEASFPGRSAQPAGRFKVGMPQSLARHCILPRIGEFLQQYPDLELILCSSDNVEDIIQEGFDCVIRTGRIEDSTTLVARPLARYRWMVLASPAWLAAHGRPQSIDELHQHRAVGYLNHRTGRTIDWLFSLDEGDCAIRMRETLVVDDTDAYIQAGIQGLGLIRVASYLAQPYLQSGALVACLEQAASDLPLSLVYPQNRYLPPAVRAFYDWSRRVLQPPHSEA ... failed
MEGLESVYAQAMYGMTRESKIMEHQGSDLIWGGNELMARELCSSSSYHHQLINPNLSSCFMSDLGVLGEIQQQQHVGNRASSIDPSSLDCLLSATSNSNNTSTEDDEGISVLFSDCQTLWSFGGVSSAESENREITTETTTTIKPKPLKRNRGGDGGTTETTTTTTKPKSLKRNRGDETGSHFSLVHPQDDSEKGGFKLIYDENQSKSKKPRTEKERGGSSNISFQHSTCLSDNVEPDAEAIAQMKEMIYRAAAFRPVNFGLEIVEKPKRKNVKISTDPQTVAARQRRERISEKIRVLQTLVPGGTKMDTASMLDEAANYLKFLRAQVKALENLRPKLDQTNLSFSSAPTSFPLFHPSFLPLQNPNQIHHPEC ... failed
MMINRINLTDIRSFVLIARLGNFTKAAETLDVSRSHVSRQISSLEKQMGVTLLIRTTRTLRLTEAGKHFYHQCEQALHTIDQALLSAVDDVEKVQGEIKINCVGGYLGEVFLADIVNTFMQQYPDVSISLDFSSNRVDLIEEEFDIAFRMGSLEDSGFVAKKLLDIEMGTLASPKYLQQYGRPSHPKELQQHHCLTGSVRKWHFQSLVNKEHYDVSIKGNLQCKNGRVLVAGAIAGNGIIRVPLIYCQQELDDKKLVQVFEEWGIPTVDFSAIYHRDRYQPKRIRTFIDFVKQYSDSLFT ... failed

Field: protein production. Fill in for each record below.
1. MPFWLEVVINVAFSYLASVGFALTINVPHRALNLSGISGTVGWMAYWFCFRLGAGRMASNLIGAFLIGILGLVFARIKKCPVTVFNIPALVPLVPGMPAYQAVRAFVVGDYIQGQELILRVAIVTGAIGLGFLLSTMCTEAFYKIRYRHFRNTGLYFKRKK
2. MPIVVFHKGDETFTDEVKDNTNLVVRAGIKQFPYPNLRYQCGMGKCATCACRILAGGEHLPEPNWKEKKQLGDRLAQGYRLACQLWITHDIELRQDAAAPAGGGD
3. MKNPDYEPSKPHHTPDGFRNRYPHAPRDSNGSAWKWMRERRRLGLPKPPTADLSCVPPDLAAIRRPSAVPQVTWIGHETLLLQIDGLNVLTDPVFGERASPLPFAGPRRHQPPGLSLAQLPHIDLVLLSHNHYDHLCRASVRALMRQPGGAPMFFVPLGIDRWFKRHVRGTRLSGEHVNVRAFDWDTEARFGPFSVHFCAVQHWSARGLYDRNRTLWGSWALLHPQLRFWFSGDLGYSQDTRDIGARFGHFDVAAIAVGAYEPRWFMKTQHIDPAEAVQVMQDIGARHAVGIHWGTFPLTDEPLDQPIADLANALRARDIDAERFVLFRHGETRVWDAQAARLLTPAEQQKARPRVDSLAAQ
4. MNHTLQFPKAPEHLLQALNEVIPKCKLMAQQLPETAISLWLIPPVFPTERLDDDIIRRIWSDTPYWIFCWASGLAMAQWLLAEPHHVKDKVVLDFGAGSGVVAIAAKMAGAKRVICCDIDETSLNACRENALLNNVELEYLNDLYLSESVDILLAADVLYDQSNRFFLDEFLKFAPEVWVADSRVKNFSHPGYIKIDERSATTWPDLDEAKEFRNVSFYKTL

Ans:
1. failed
2. failed
3. failed
4. failed

Field: protein production. Fill in for each record below.
1. EELEYKGMNTLQISNVDDLISFYQYADDRIPLISGHRGGRGKGYPENSMETFENTLSYTPATFEIDPRLTKDSVIVLFHDDTLERTSNGTGKVSDYTWEELQNFRLKDPEGNITNYRIPTLEEAIRWARGKTILILDKKDVPMERTAQLITDMQAEPYVMITVHDGASARFFYEKNPNFMFEAFVKTKEAVQDYEDNGIPWSHIMAYVGPKITPEVREVIDMLHERGVMCMISTAPSDDKLSTPESRAEAYRMIIRQGVDIIESDRPIEVAEAISSLIPVSSSKGKFFSTL
2. KALGSKEIPKGAENCLEGLIFVITGVLESIERDEAKSLIERYGGKVTGNVSKKTNYLVMGRDSGQSKSDKAAALGTKIIDEDGLLNLIRTMPGKKSKYEIAVETE

Ans:
1. not failed
2. not failed

###

Assay: label from the status in PepcDB records
MEASURED_QUANTITY: protein production

MIAQQFNRARHILRHNLVRPFYQPKFYLESGKLAGFEALLRWYDEDNQIQLPKLIINAFEDYSLASRLSEKMQLNIFKDMASWINQGLQLVPVSINAAPVEFLKDNYAELLLERLNQFEIPYHLIEIEITEHLLDDQGKNFISRALAKLKQNGIRIALDDFGTGHSSLTRLANLPVDCLKIDCDFVQRMEQEKFISALVQSVILMSNNLGIDVVAEGIESQEQLELLKQQGCEVGQGFLFSQALAPENARALLS ... failed
METQKTQAENPPKPATSSCRKKTKDDANFLEDVKDHIDDFINASMDDHKNCFNKTIKKMFGLSKAVADKQQSEAKGGVESYLPLQTTVSD ... failed
MPDVLPHPDGPDSTARPWCSVVIPVLHEAVTIAAQVAHVRHVAARCGMEVEVVVADGAKERDTLAALPEGCCTAVASCPGRARQMNAGAGKARGETLLFLHADTHLPPEAFTLLRRARQAGIRAGAFRLGIAATGLWFRLVERLACWRNRLVRTPYGDQAQFFDAALFRAVGGYPDQPLMEDVEVMRRLRKAGERIVILPGRVETSARRWFVEGPLRCTLRNLCLRLLYALGVPAHALSRWYRAHKERP ... failed

###

Experiment: label from the status in PepcDB records
MEASURED_QUANTITY: protein production

AEGQTVYWHAWGGDPKINAFIAWVGEQARARHGFMLEQVKLADTTEAVARVLAEKQAGRTEGGAVDLIWINGENFAAMKAQGLLSEPFAESLPNWTHVDVAGKPAVVTDFTEPTGGLESPWAMAQLVFEHDSARLPAPPRTLAQLLAWIEVNPGRFTFPQPPDYLGTTFLKQVLYGVIEDPGLLQKPVDPATYETVTAPLWTWLDRAEPYLWREGRAYPANEPALGQLFADGEIAISFAFNPGRASAAIAAGELPETVRTFTLEGGTIGNASFVAIPFNAAHAAGAKVIANLLLDPEVQARAQDPAVLGFQTVLDVAALPEPDRARFAAL ... failed
MPAFVTFGRILFAVLFIYTGATKLFAIQATADFIATKVVVPDIIAPYAKQIETATAMTTPQLLAIAVGALEIIAGLMIALNFGARFFAMLLIVYVAVATVLFYDFWNLAAPDNAKMLVDALKNLSIIGALCMIIGYGRATRPVEAAYGDV ... failed
